# systemUnderTest: KIT D816V (Homo sapiens, UniProt P10721, D816V)
# Sequence (P10721 26-976 D816V): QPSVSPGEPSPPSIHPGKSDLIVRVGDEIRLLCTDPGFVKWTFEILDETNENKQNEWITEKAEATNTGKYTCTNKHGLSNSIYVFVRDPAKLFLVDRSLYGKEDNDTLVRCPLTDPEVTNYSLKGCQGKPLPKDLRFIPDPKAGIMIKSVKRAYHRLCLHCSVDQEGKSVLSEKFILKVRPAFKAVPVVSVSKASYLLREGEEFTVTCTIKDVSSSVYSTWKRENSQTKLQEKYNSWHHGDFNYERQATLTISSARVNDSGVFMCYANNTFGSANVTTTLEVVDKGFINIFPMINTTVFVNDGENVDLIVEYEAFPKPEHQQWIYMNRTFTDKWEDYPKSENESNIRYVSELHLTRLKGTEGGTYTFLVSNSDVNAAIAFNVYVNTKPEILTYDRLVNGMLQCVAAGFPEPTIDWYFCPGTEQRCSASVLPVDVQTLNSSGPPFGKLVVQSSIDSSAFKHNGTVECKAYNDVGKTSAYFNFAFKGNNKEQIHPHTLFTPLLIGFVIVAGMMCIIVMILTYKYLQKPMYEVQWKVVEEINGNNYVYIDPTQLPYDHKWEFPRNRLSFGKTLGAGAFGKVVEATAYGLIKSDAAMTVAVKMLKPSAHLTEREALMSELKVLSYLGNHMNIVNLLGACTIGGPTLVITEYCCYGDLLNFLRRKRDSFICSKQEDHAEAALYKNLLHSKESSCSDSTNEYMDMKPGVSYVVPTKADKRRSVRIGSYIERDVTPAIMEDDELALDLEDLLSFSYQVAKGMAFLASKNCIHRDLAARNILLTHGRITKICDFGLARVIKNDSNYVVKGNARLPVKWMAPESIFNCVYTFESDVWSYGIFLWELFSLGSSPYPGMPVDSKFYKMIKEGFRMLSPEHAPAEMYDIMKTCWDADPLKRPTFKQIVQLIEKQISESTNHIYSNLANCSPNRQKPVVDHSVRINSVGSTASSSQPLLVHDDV
# experimentalProtocol: KIT D816V biochemical enzymatic activity assay (EZReader 2 mobility shift)
# condition: ATP at APPKM (20 μM), 60 minutes
pIC50: −log10 of the molar value.
experimentalEndpoint: pIC50

Here is how some compounds turned out for pIC50.
• C[C@](N)(c1ccc(F)cc1)c1cnc(N2CCN(c3ncnn4cc(-c5cnn([C@H]6CC[C@@H]6O)c5)cc34)CC2)nc1 (single isomer, unassigned) [Compound 10] = 9.00 to 9.51
• C[C@](N)(c1ccc(F)cc1)c1cnc(N2CCN(c3ncnn4cc(-c5cnn([C@@H]6CC[C@H]6O)c5)cc34)CC2)nc1 (single isomer, unassigned) [Compound 11] = ≥ 9.52

Now take the following compound into account.
Entry CCn1cc(-c2cc3c(N4CCN(c5ncc([C@@](C)(N)c6ccc(F)cc6)cn5)CC4)ncnn3c2)cn1 [Comparator A, reference compound] , system KIT D816V (Homo sapiens, UniProt P10721, D816V): what pIC50 was measured?
≥ 9.52

====

# experimentalProtocol: Brain penetration in rats, brain to plasma ratios after 24 h IV infusion
# Format: in vivo, Sprague-Dawley rats
# condition: Sprague-Dawley, rat, brain / plasma, intravenous, 1 mg/kg/hr, Table 3B, fu,brain from brain homogenate; read-out: Rat Kp, uu Homogenate
experimentalEndpoint: Kp uu at 24 h
// return a plain number; no unit text

Quick check: Kp uu at 24 h of C[C@](N)(c1ccc(F)cc1)c1cnc(N2CCN(c3ncnn4cc(-c5cnn([C@@H]6CC[C@H]6O)c5)cc34)CC2)nc1 (single isomer, unassigned) [Compound 11] ?
0.06
